Cited source: BindingDB's records for doi:10.1021/jm070133w

Target: Glutamate carboxypeptidase 2 [44-750] (Homo sapiens)
Sequence (Q04609 44-750): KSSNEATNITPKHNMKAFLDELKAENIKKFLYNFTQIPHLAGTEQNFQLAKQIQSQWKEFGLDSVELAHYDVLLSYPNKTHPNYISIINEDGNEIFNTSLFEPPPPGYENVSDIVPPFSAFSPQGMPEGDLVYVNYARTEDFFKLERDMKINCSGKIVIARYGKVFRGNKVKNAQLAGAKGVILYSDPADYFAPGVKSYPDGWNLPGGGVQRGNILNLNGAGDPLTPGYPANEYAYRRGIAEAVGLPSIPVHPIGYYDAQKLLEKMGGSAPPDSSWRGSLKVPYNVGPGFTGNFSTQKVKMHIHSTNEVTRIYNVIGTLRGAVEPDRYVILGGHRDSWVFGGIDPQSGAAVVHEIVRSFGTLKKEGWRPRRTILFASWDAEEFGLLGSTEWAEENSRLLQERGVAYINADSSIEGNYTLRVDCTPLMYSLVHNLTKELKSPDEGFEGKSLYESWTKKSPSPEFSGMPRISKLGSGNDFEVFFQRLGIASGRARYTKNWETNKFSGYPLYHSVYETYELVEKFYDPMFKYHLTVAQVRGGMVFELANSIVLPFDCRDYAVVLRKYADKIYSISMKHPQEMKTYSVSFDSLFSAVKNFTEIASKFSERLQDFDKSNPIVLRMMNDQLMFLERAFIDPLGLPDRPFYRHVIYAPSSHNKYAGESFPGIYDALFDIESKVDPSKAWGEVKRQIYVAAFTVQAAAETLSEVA
pIC50: −log10 of the molar value.
Readout: pIC50

Report pIC50 for Cc1onc(O)c1C[C@H](N)C(=O)O please.
< 2.00
